testedTarget: IGF-1R (Homo sapiens, UniProt P08069)
testMethodNotes: Phage ELISA, binding of phage clones to IGF-1R (ratio over background)
assayConditions: ratio of IGF-1R divided by ratio of IR
No end group written: not given here.
measuredParameter: Comparisons IGF-1R/IR

substance	Comparisons IGF-1R/IR
GGTKAVAKVGTRDDPFYHKLSELLQGS [Peptide B6Hα-4-G8-IR]	3.6
GCVVEWQKWHGASDPFYHKLSELGGCS [B6Hα-3-F10-IR]	4.6
QPAPDGFYSALMKLIGRGGVS [20E2B-3-C8-IGFR]	8.9
APDPSDFQEIFYDWFVRQVSRMPGGG [H2CA-1-A3-IGFR]	5.1
VVTPVNFYRALEALVRG.RLG (VVTPVNFYRALEALVRGXRLG; not fully specified; printed as VVTPVNFYRALEALVRG.RLG; X: residue not identified in the source; ends and bridges not checked) [20E2B-2-B11-IGFR]	9.4

(1) PVGVQGFYEGLSRLVLGRGGW [20E2B-4-F8-IGFR]
(2) GRTMAVMAAGGPDDPFYHKLSELVQGG [Peptide B6Hα-2-D6-IR]
(3) LKDGFYDYFWQRLHLGS [NNRPγ-4-B11-IR]
(4) EAASLGSQDRNFYDWFVRQVV [Peptide A6S-2-D11-IR]
Problem: Sort these substances on Comparisons IGF-1R/IR so the largest reading comes first. Put the labels in the requested order and write them down.
Solution: 3, 1, 2, 4

The measurements presented in this section are drawn from patent US20070004634A1.
